Measured TGI of individual entries
Test system: HT29 colon
Experiment: NCI tumour cell line growth inhibition, 48 h

response.value for `O=[N+]([O-])c1cc(-c2nc(=S)[nH][nH]2)ccc1O` (field: TGI) = > 100 µM

response.value for `OCc1ccc(-c2csc(-c3ccc(CO)o3)c2)o1` (field: TGI) = > 100 µM

response.value for `Cc1ccccc1NC(=O)Cc1csc(N/N=C2\NC(=O)/C(=C/c3cccc([N+](=O)[O-])c3)S2)n1` (field: TGI) = > 100 µM

* * *

Measured TGI of individual entries
System: UACC-257 melanoma
Assay: NCI tumour cell line growth inhibition, 48 h
Could you give me the number in µM? Just the number is fine.

{"compound": "O=c1ccc2ccc(CBr)cc2o1", "TGI / µM": 24}
{"compound": "NC(=O)c1cccc2c(N[C@H](CN3CCC3)c3ccc(Cl)c(C(F)(F)F)c3)ncnc12", "TGI / µM": 5.27}

Now take the following compound into account.
Value (TGI, UACC-257 melanoma) for record COc1ccc2c(c1)N(Cc1ccc(Cl)cc1)CCC2N1CCCC1=O (stereo unspecified) = 11.2
